- target.under.test: Estrogen receptor (Homo sapiens)
- protocol.text: OT_ERa_GFPERaERE_0480: Odyssey Thera (OT) 8-hour HeLa Transcription Induction Assay for Estrogen Receptor (AID 2283381)
Active and inactive are the calls of the source. How the source made its calls: active means hit-call score of the fitted dose curve at least 0.9, where 1 is the maximum; inactive means score below 0.9.
Outcome codes: active, inactive

[
  {
    "compound": "CCC(C)(C)c1ccc(O)cc1",
    "target.under.test": "Estrogen receptor (Homo sapiens)",
    "class.name": "active"
  },
  {
    "compound": "CCCCc1ccc(O)cc1",
    "target.under.test": "Estrogen receptor (Homo sapiens)",
    "class.name": "inactive"
  },
  {
    "compound": "[N-]=[N+]=[N-]",
    "target.under.test": "Estrogen receptor (Homo sapiens)",
    "class.name": "inactive"
  },
  {
    "compound": "CN(C)C(=O)Cl",
    "target.under.test": "Estrogen receptor (Homo sapiens)",
    "class.name": "inactive"
  },
  {
    "compound": "CCOS(=O)(=O)OCC",
    "target.under.test": "Estrogen receptor (Homo sapiens)",
    "class.name": "inactive"
  },
  {
    "compound": "CC(C)(C)OOC(C)(C)C",
    "target.under.test": "Estrogen receptor (Homo sapiens)",
    "class.name": "inactive"
  },
  {
    "compound": "CCOC(=O)c1ccccc1N",
    "target.under.test": "Estrogen receptor (Homo sapiens)",
    "class.name": "inactive"
  },
  {
    "compound": "CCCCOCC1CO1 (stereo not drawn)",
    "target.under.test": "Estrogen receptor (Homo sapiens)",
    "class.name": "inactive"
  }
]
